Measured TGI of individual entries
test system: SK-MEL-2 melanoma; experiment: NCI tumour cell line growth inhibition, 48 h

1) O=c1c2c3c(sc2n2c(-c4cc(-c5ccccc5)no4)nnc2n1Cc1ccccc1)CCCC3 | 23.5 µM
2) CCCc1cc(O)c2c3c(c(=O)oc2c1)CN(C)CC3 | > 100 µM
3) Nc1nc(NCCO)c(N=O)c(=O)[nH]1 | > 100 µM
4) O=S1(=O)C(c2ccccc2)C(N2CCCCC2)C1C1CC2c3ccccc3C1c1ccccc12 (stereo unspecified) | > 100 µM
5) CN(C)CCC(O)(c1ccccc1)C(O)(CCN(C)C)c1ccccc1 (stereo unspecified) | > 100 µM

Q: What does the data say about its TGI? Entry: Cc1ccc(S(=O)(=O)n2c3c(c4ccccc42)CCN2C(=O)C(S(=O)(=O)c4ccccc4)=CCC32)cc1 (stereo unspecified)
Result: 0.475 µM

Q: What value of TGI has been recorded for this entry: COc1ccc(N(CN2C(=O)CCC2C(=O)O)C(C)=O)cc1 (stereo unspecified)
Result: > 100 µM

Q: Can you look up the measured TGI of O=C1CC(c2cccc(O)c2)C2(C(=O)NC(=S)NC2=O)C(c2cccc(O)c2)C1 (stereo unspecified) for me?
Result: > 100 µM

====

test system: MALME-3M melanoma; experiment: NCI tumour cell line growth inhibition, 48 h
MEASUREMENT LABEL: TGI (µM)
Quick note: give the figure in µM, leave out the unit.

Known TGI results, listed for orientation:
1. C/C=C/C/C=C/CCC(=O)[C@H]1O[C@H]1C(N)=O | 32.9
2. CC(=O)N1N=C(c2ccc(Nc3nc(Nc4ccc(Cl)cc4)nc(Nc4ccc(Cl)cc4)n3)cc2)CC1c1ccc([N+](=O)[O-])cc1 (stereo not given) | 71.7
3. Cc1ccc2c(c1)c1nc3cc(C)c(C)cc3nc1n2CCN(C)C | 3.76

Attention now shifts to the item below.
Q: Look up TGI with MALME-3M melanoma for this compound: O=C(Nc1ccc(F)cc1)Nc1ccccc1CNc1nc(Nc2ccc(OCCN3CCCC3)cc2)ncc1Cl
Result: 1.55

====

test system: RPMI-8226 leukemia; experiment: NCI tumour cell line growth inhibition, 48 h
Overview of recorded TGI for various compounds

1) COC(=O)[C@H](Cc1ccccc1)NC(=O)N1CCCN(C(=O)N[C@@H](Cc2ccccc2)C(=O)OC)CCCN(C(=O)N[C@@H](Cc2ccccc2)C(=O)OC)CCC1 | > 100 µM
2) N#CC(/C(=N/NC(=O)C(=O)NN)C(=O)Nc1nc([N+](=O)[O-])cs1)c1ccc(Cl)cc1 (stereo unspecified) | > 100 µM
3) C=[N+](CNC(=O)CNC(=O)C(Cc1ccc([N+](=O)[O-])cc1)NC(=O)OC(C)(C)C)C(=O)CNC(=O)C(Cc1ccc([N+](=O)[O-])cc1)NC(=O)OC(C)(C)C (stereo unspecified) | 50.4 µM
4) Cc1cccc2cc3c(ccc4ccccc43)c[n+]12 | > 100 µM
5) N#CC(C(=O)/C(=N/NC(=O)c1ccccc1O)C(C#N)c1ccccc1)c1ccccc1 (stereo unspecified) | > 100 µM
6) COc1cccc(C2C3=C(COC3=O)N(CCO)c3cc(OC)ccc32)c1 (stereo unspecified) | > 100 µM

Q: Could you share what TGI was measured for Cc1ccc(Cc2n[nH]c(=O)n2-c2ccccc2)cc1 , tested on RPMI-8226 leukemia?
Result: 76 µM

Q: For RPMI-8226 leukemia, provide TGI of CN(C)c1nc2oc(-c3ccccc3)c(-c3ccccc3)c2c2nncn12 please.
Result: > 100 µM

Q: Lookup: TGI / RPMI-8226 leukemia / CN(CCCCCl)P(=O)(OCc1ccc([N+](=O)[O-])o1)OCC1OC(n2ccc(N)nc2=O)C(F)(F)C1O (stereo unspecified)
Result: > 100 µM

Q: Form entry - test system: RPMI-8226 leukemia; read-out: TGI; compound: Cn1ccnc1C(=O)/C=C/c1ccc(C(=O)Nc2ccc(S(F)(F)(F)(F)F)cc2)cc1
Result: 2.68 µM

Q: Please state recorded TGI (tested on RPMI-8226 leukemia) of O=c1c2ccccc2c(Br)c(Br)c2ccccc12
Result: 5.84 µM

Q: Requested read-out TGI, target or system RPMI-8226 leukemia, entry O=C(CC(=O)Nc1cccc(Cl)c1)NNCC(=O)Nc1nnc(-c2ccccc2)s1
Result: 86.6 µM

Q: # get_value(readout= TGI, system= RPMI-8226 leukemia) for O=C(N/N=C(/COc1ccc(Cl)cc1)N=Cc1cccnc1)c1ccncc1
Result: > 100 µM

Q: State its TGI on RPMI-8226 leukemia: CC(=O)Oc1cc(C)c2c(c1OC(C)=O)CC1(O2)[C@@H](C)CCC2[C@@]3(C)CC[C@H](OC(C)=O)C(C)(C)C3CC[C@]21C (stereo partly specified)
Result: > 100 µM

Q: Provide the documented TGI with RPMI-8226 leukemia as the system for Fc1ccc(-c2nn3c(-c4ccc(F)c(Cl)c4)nnc3s2)cc1
Result: > 50 µM

Q: Form field: TGI recorded for CC(C)C[C@H](NC(=O)[C@H](Cc1ccccc1)NC(=O)CCc1ccccc1)B(O)O with RPMI-8226 leukemia (enter value)
Result: > 100 µM

Q: // fetch RPMI-8226 leukemia TGI for CC(=O)N1CN2C(=O)CCC2c2ccccc21 (stereo unspecified)
Result: > 100 µM

Q: Can you look up TGI on RPMI-8226 leukemia for O=S(=O)(N/N=C1\CC2CCC1C2)c1ccccc1 (stereo unspecified) ?
Result: > 100 µM

Q: Requested read-out TGI, target or system RPMI-8226 leukemia, entry Nc1ccccc1-c1ccc([N+](=O)[O-])cc1
Result: > 100 µM

====

TGI: recorded values
tested on: UACC-62 melanoma; assay: NCI tumour cell line growth inhibition, 48 h
Entry rule: numbers only, all in µM.

1. C=CCc1cc(-c2cc(CC=C)c(O)c(CNC)c2)cc(CNC)c1O | 31.9

Q: Query: TGI; subject: Cn1cc(C2=C(c3cn(CCO)c4ccccc34)C(=O)NC2=O)c2ccccc21
Result: 7.99

====

test system: NCI-H226 lung; assay: NCI tumour cell line growth inhibition, 48 h; in the data active = GI50 below about 0.43 µM; inactive = the rest
Would you mind answering with one of these outcomes? active, inactive

Use these answered entries as a reference point.
1) N#Cc1ncc(-c2ccc(C(F)(F)F)cc2)c(NCc2cc(C(F)(F)F)cc(C(F)(F)F)c2)n1 | inactive
2) COc1cc2c3c(n(CCCN(CCN)CCCn4c5c(c6cc(OC)c(OC)cc6c4=O)C(=O)c4cc6c(cc4-5)OCO6)c(=O)c2cc1OC)-c1cc2c(cc1C3=O)OCO2 | inactive
3) CC(=O)O[C@@]12CO[C@@H]1C[C@H](O)[C@@]1(C)C(=O)[C@H](O)C3=C(C)[C@@H](OC(=O)[C@H](O)[C@@H](NC(=O)OC(C)(C)C)c4ccccc4)C[C@@](O)([C@@H](OC(=O)c4ccccc4)[C@H]21)C3(C)C | active
4) CC(=O)Nc1ccc(/C=C/C(=O)c2ccccc2)cc1 | inactive

Let's switch to this compound now.
Q: Record request — test call for Cc1cc(NCCCNc2ccnc3cc(Cl)ccc23)nc(N2CCN(C)CC2)n1
Result: inactive

====

test system: MCF7 breast; assay: NCI tumour cell line growth inhibition, 48 h
MEASUREMENT LABEL: TGI

1) Cc1ncc([N+](=O)[O-])n1CCN(C)C(=O)CCCn1ccnc1[N+](=O)[O-] | > 100 µM
2) CN(Cc1ccc(Cl)cc1)c1ccc(CO)c(Cl)c1 | 12.5 µM
3) CCCc1cc(O)c2c3c(c(=O)oc2c1)CN(C)CC3 | > 100 µM

Q: Param item = C=CCOC(=O)Cn1cc(C)c(=O)[nH]c1=O ; retrieve measured TGI.
Result: > 100 µM

Q: Can you share its TGI? I mean this compound: COc1cc(C(=O)N2N=C(c3ccc(S(C)(=O)=O)cc3)CC2c2ccco2)cc(OC)c1OC (stereo not given)
Result: > 100 µM

Q: Entry under review: Clc1cc2c(cc1Cl)Oc1cc(Cl)c(Cl)cc1O2 . Reported TGI?
Result: > 0.625 µM

Q: Look up TGI: Nc1ncnc2c1ncn2Cc1ccc(C23CC4CC(CC(C4)C2)C3)c(OCc2cc(F)c(F)cc2F)c1
Result: 30.2 µM

Q: Entry under review: COc1cc2c(cc1O)-c1c(cnn1-c1ccc([N+](=O)[O-])cc1)CCC2 . Reported TGI?
Result: > 100 µM

Q: I'd like to know its TGI. The compound in question is Nc1cc2c(nnn2C2OC(COCc3ccccc3)C(OCc3ccccc3)C2OCc2ccccc2)c(=O)[nH]1 (stereo not given)
Result: 83.9 µM

Q: Which TGI value is on record for C#CCN(Cc1nc2cc(C(F)(F)F)ccc2nc1-c1ccccc1)c1ccc(OC(F)(F)F)cc1 ?
Result: > 100 µM
